Tested on: MS2 coat protein
Assay: apparent KD of MS2 coat protein; designed switch direction (-1 OFF switch, 1 ON switch): -1; higher = weaker reporter binding
Details: Eterna round: R95; input ligand: none
apparent KD of MS2 coat protein for assorted sequences
MEASUREMENT KIND: apparent KD of MS2 coat protein (nM)

[[record]]
query_sequence = "ACUAGCUUUUUGCAUAGUAGGUUUGGUGCUUCGUAUGCUACAUGAGGAUCACCCAUGUAUUACUGAUUUCGUCGUUU [JR_SV3TOV2_Sub093] (puzzle: Sensor v3, turn-off variant 2)"
measure_unit = "nM"
result_number = 27.3

[[record]]
query_sequence = "AGUUGUUGUUUCCGUUCUUACAUGAGGAUCACCCAUGUUUCUUGUCGUGCUCGCGUUGCUCGUCUGACUACCUGUUG [salish99_TOv1_r3_067] (puzzle: Sensor v3, turn-off variant 1)"
measure_unit = "nM"
result_number = 68.1

[[record]]
query_sequence = "AUACCAUGCCGCCUAAUAGCUUUUUGCUCGUCUUAUAAAACAUGAGGAUCACCCAUGUAAAACUCGUGGCGUGACCC [Leorbixe] (puzzle: Sensor v3, turn-off variant 2)"
measure_unit = "nM"
result_number = 60.8

[[record]]
query_sequence = "ACAAGCUCUUUGCAACUUAGUUUUGUUGCUUCGUAGGUAACAUGAGGAUCACCCAUGUAAGACUGAUGUCGUCUUAU [JR_SV3TOV2_Sub086] (puzzle: Sensor v3, turn-off variant 2)"
measure_unit = "nM"
result_number = 36.8

[[record]]
query_sequence = "AAGAAACAUGAGGAUCACCCAUGUGAGGAUAUGAAGAAGAAAAGAAAAGAAAGAAGAAUCAGAAGGCACAAAGG [salish99-ex1_r3_046] (puzzle: Exclusion 1)"
measure_unit = "nM"
result_number = 48.4

[[record]]
query_sequence = "CCUUUGUCAGGAUAUCAGAACACGCUCCUAGGGAGCGCAAAUGAGAAGGGACAUGAGGAUCACCCAUGUAAAGA [Arisesat] (puzzle: Exclusion 4)"
measure_unit = "nM"
result_number = 54.8

[[record]]
query_sequence = "CAUUACUGCAGGCUUCGGGACAUGAGGAUCACCCAUGUUCGUCUUAUUGAUCUAGGUACGCUGACGUACCUAGAUCU [JL-sv1-2.25 Brourd mod] (puzzle: Sensor v3, turn-off variant 1)"
measure_unit = "nM"
result_number = 15.6

[[record]]
query_sequence = "UAUUAGCAAGCACGAUCCCACAUGAGGAUCACCCAUGUGCUCGUCUUAUAAGGUACUGUGACGAAAGUCACGGUACC [Sensor 3, v1 - 94] (puzzle: Sensor v3, turn-off variant 1)"
measure_unit = "nM"
result_number = 75.9

[[record]]
query_sequence = "CAGGUGUUAGGAUAUCGGAGAUCGAGACCGACGGGAUGAGCCGAGAAGGAACAUGAGGAUCACCCAUGUAGGUG [JR_Exclu4_Sub034] (puzzle: Exclusion 4)"
measure_unit = "nM"
result_number = 414

[[record]]
query_sequence = "AGAAGUAGUACCCGAUCCUACAUGAGGAUCACCCAUGUAGCUAGACGUGCACGCGAUGCUCGUCAGACUACCAGAUG [salish99_TOv1_r3_032] (puzzle: Sensor v3, turn-off variant 1)"
measure_unit = "nM"
result_number = 189

[[record]]
query_sequence = "UUUAAUUUUUUUUUUUUACAAGCUUUUUGCUCGUCUUAUACAUGAGGAUCACCCAUGUGAAUGGAAGGUAAAUUAUC [JMF 68] (puzzle: Sensor v3, turn-off variant 2)"
measure_unit = "nM"
result_number = 20.4

[[record]]
query_sequence = "ACAAGCUUUUUGUUCGUCUUAUACACUCCUAAUAAGACAACAUGAGGAUCACCCAUGUAAGAAAUAAGAACUCAUGU [Sesor Array 4 - Jieux - Sensor v3, turn-off variant 2] (puzzle: Sensor v3, turn-off variant 2)"
measure_unit = "nM"
result_number = 381

[[record]]
query_sequence = "UUUAAUUUUUUUUUUUUACAAGCUUUUUGCUCGUCUUAUACAUGAGGAUCACCCAUGUGGGUAAAAGGUAAAUUAUC [JMF 63] (puzzle: Sensor v3, turn-off variant 2)"
measure_unit = "nM"
result_number = 17.3

[[record]]
query_sequence = "AGUACUAUGCGAGCUGACUUGCGUAGUGCAGCAGGUGUAACAUGAGGAUCACCCAUGUCCUCAUUUGCUCGUCUUAA [Mat - Sensor v3 - Turn-off var 2 - D9] (puzzle: Sensor v3, turn-off variant 2)"
measure_unit = "nM"
result_number = 235

[[record]]
query_sequence = "GAGUAGGUAGGAUAUACGAUAAUAUAGGGUAGAUAUAUAACACAUGAGGAUCACCCAUGUAGAAGGACCAUGAG [Mat - Exclusion 2 - Mod of my Tesla design - D62] (puzzle: Exclusion 2)"
measure_unit = "nM"
result_number = 35.1


Numbers sourced from the supplement of paper PMC9170038.
